molecular target: Human Tyk2 kinase domain (Homo sapiens (Human)); assay: Tyk2 Inhibition Assay (Omnia kinase fluorescence peptide substrate assay); type: biochemical; conditions: read-out: TYK2 Enzyme IC50 1 mM ATP; 1 mM ATP; averaged IC50 ranges
A collection of compounds and their measured IC50

Consider the worked cases shown below.
compound	value.observed
CCC(CC)n1cc(-c2nc(-c3cnn(C4CN(C(=O)C(C)(C)O)C4)c3)cn3nccc23)cn1 [Example 176]	< 10 nM
CCC[C@H](C)n1cc(-c2nc(-c3cnn(C[C@H](O)CO)c3)cn3nccc23)cn1 [Example 86]	< 10 nM
CCC(CC)n1cc(-c2nc(-c3cnn(C4CN(C(=O)C5(O)CC5)C4)c3)cn3nccc23)cn1 [Example 177]	< 10 nM
CCC(CC)n1cc(-c2nc(-c3cnn(C4CCN(S(C)(=O)=O)CC4)c3)cn3nccc23)cn1 [Example 32]	< 10 nM
CCC(CC)n1cc(-c2nc(-c3cnn(C4CCN(C(=O)COC)CC4)c3)cn3nccc23)cn1 [Example 33]	< 10 nM

// switching to the query compound
For the compound CCC(CC)n1cc(-c2nc(-c3cnn(C4CCN(C(=O)CN)CC4)c3)cn3nccc23)cn1 [Example 36] , report IC50.
< 10 nM

---

biological target: JAK2 (Homo sapiens (Human)); assay: JAK2 Inhibition Assay (Omnia kinase fluorescence peptide substrate assay); format: biochemical; conditions: read-out: JAK2 Enzyme IC50 1 mM ATP; 1 mM ATP; averaged IC50 ranges
Sequence (O60674 whole entry): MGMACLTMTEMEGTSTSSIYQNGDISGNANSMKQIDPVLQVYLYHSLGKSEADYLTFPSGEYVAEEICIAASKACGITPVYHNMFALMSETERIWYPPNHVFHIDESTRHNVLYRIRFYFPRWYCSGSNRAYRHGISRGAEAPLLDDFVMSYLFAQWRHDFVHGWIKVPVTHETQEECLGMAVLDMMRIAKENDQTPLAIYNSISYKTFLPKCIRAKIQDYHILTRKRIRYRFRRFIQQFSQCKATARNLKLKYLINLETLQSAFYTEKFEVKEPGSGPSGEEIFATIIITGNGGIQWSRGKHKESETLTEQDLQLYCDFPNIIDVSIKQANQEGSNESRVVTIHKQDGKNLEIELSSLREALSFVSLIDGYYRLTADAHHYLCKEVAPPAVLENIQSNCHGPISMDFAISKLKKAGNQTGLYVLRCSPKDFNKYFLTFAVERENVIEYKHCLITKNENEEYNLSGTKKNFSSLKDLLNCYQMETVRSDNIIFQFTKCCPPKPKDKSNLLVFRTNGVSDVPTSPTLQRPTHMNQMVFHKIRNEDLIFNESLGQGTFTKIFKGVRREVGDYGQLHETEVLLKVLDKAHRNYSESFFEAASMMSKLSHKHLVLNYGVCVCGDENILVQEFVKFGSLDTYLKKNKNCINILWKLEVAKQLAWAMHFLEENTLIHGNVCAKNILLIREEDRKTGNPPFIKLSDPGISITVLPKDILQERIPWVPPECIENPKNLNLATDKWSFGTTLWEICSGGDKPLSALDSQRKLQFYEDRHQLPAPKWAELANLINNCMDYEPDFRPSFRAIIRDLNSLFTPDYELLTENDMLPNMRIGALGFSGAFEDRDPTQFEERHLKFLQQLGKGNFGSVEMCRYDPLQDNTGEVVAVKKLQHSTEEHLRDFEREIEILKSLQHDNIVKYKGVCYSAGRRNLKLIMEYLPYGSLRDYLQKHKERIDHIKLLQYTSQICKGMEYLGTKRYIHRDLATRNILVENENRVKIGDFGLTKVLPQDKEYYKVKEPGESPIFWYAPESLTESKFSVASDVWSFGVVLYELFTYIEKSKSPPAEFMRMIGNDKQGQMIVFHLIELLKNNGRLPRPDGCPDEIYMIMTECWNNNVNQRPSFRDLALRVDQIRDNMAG
parameter.measured: IC50

Consider the worked cases shown below.
compound	IC50
CCC(CC)n1cc(-c2nc(-c3cnn(C4CCN(C(=O)NC)CC4)c3)cn3nccc23)cn1	< 10 nM
CCC(CC)n1cc(-c2nc(-c3cnn(C4CCN(S(C)(=O)=O)CC4)c3)cn3nccc23)cn1	< 10 nM

For the compound CC[C@@H](C)n1cc(-c2nc(-c3cnn(C(CO)CO)c3)cn3nccc23)cn1 , report IC50.
< 10 nM

For the compound CCC(CC)n1cc(-c2nc(-c3cnn(C4CCN(C(=O)COC)CC4)c3)cn3nccc23)cn1 , report IC50.
< 10 nM

For the compound CC1(C)CCC[C@@H]1n1cc(-c2nc(-c3cnn(C[C@@H](O)CO)c3)cn3nccc23)cn1 , report IC50.
1000 to 10000 nM

For the compound CCC(CC)n1cc(-c2nc(-c3cnn(C4CCN(C(=O)CN)CC4)c3)cn3nccc23)cn1 , report IC50.
< 10 nM

For the compound CCC(CC)n1cc(-c2nc(-c3cnn([C@@H]4C[C@@H](O)[C@@H](O)C4)c3)cn3nccc23)cn1 , report IC50.
10 to 100 nM

For the compound CCC(CC)n1cc(-c2nc(-c3cnn(C4CCN(C(C)=O)CC4)c3)cn3nccc23)cn1 , report IC50.
< 10 nM

For the compound CC[C@H](C1CC1)n1cc(-c2nc(-c3cnn(C[C@@H](O)CO)c3)cn3nccc23)cn1 (single isomer, unassigned) , report IC50.
10 to 100 nM

For the compound CCC(CC)n1cc(-c2nc(-c3cnn(C4CS(=O)(=O)C4)c3)cn3nccc23)cn1 , report IC50.
< 10 nM

---

Target: JAK1 (Homo sapiens (Human), UniProt P23458)
Sequence (P23458 whole entry): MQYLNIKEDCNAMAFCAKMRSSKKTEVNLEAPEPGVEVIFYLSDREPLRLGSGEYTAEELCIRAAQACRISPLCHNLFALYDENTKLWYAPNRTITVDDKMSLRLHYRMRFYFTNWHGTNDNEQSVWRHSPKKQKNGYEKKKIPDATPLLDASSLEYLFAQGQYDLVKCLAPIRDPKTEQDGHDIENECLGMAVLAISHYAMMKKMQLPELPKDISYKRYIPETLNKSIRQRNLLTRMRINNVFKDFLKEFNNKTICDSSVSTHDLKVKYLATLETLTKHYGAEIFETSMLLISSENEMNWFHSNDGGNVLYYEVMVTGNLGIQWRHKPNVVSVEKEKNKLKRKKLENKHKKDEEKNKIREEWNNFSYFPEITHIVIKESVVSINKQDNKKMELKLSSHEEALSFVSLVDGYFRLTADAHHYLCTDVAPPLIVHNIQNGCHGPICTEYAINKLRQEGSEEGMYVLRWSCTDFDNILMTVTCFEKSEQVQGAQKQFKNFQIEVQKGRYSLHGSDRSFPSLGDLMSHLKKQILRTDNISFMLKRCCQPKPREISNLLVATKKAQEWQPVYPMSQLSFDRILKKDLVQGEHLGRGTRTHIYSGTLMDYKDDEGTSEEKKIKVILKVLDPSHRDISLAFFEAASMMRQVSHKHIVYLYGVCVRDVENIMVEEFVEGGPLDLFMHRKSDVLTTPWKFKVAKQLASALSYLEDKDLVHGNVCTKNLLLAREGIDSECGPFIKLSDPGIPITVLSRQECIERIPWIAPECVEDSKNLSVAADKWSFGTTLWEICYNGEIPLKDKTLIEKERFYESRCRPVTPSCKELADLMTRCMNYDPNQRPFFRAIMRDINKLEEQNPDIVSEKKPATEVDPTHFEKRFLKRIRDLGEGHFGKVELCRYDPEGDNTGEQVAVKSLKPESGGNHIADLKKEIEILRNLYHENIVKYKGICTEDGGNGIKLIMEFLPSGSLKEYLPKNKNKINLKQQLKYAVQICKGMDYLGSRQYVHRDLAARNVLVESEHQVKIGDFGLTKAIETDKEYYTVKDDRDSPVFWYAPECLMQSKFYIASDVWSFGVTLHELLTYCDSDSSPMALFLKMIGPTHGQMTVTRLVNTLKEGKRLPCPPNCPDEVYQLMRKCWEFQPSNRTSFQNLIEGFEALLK
Assay: JAK1 Inhibition Assay (Omnia kinase fluorescence peptide substrate assay)
Format: biochemical
Settings: read-out: JAK1 Enzyme IC50 1 mM ATP, averaged IC50 ranges
Protocol: The assays described in Examples A, B, C and D for the determination of Tyk2, JAK1, JAK2 and JAK3 kinase activity, respectively, utilized the Omnia® Kinase fluorescence peptide substrate-based technology (Invitrogen). […] The reactions were therefore read at excitation 360 nm and emission was measured at 485 nm every 50 seconds for 45 minutes using a PerkinElmer EnVision Multilabel Plate Reader. […]
pIC50: −log10 of the molar value.
parameter.measured: pIC50

For the compound CCC(CC)n1cc(-c2nc(-c3cnn([C@@H]4C[C@@H](O)[C@@H](O)C4)c3)cn3nccc23)cn1 , report pIC50.
6.00 to 7.00

---

molecular target: JAK1 (Homo sapiens (Human), UniProt P23458); assay: JAK1 Inhibition Assay (Omnia kinase fluorescence peptide substrate assay); assay type: biochemical; conditions: JAK1 Enzyme IC50 1 mM ATP, averaged IC50 ranges
pIC50: −log10 of the molar value.
parameter.measured: pIC50

For the compound CCC(CC)n1cc(-c2nc(-c3cnn(C4CC(C(N)=O)C4)c3)cn3nccc23)cn1 (centres unmarked) , report pIC50.
5.00 to 6.00

For the compound CCC(CC)n1cc(-c2nc(-c3cnn([C@@H]4CCC[C@@H]4O)c3)cn3nccc23)cn1 , report pIC50.
5.00 to 6.00

---

target: JAK2 (Homo sapiens (Human)); experiment: JAK2 Inhibition Assay (Omnia kinase fluorescence peptide substrate assay); type: biochemical
pIC50: −log10 of the molar value.
parameter.measured: pIC50

Lab note: record pIC50 of CCC(CC)n1cc(-c2nc(-c3cnn([C@@H]4CCC[C@@H]4O)c3)cn3nccc23)cn1 tested on JAK2 (Homo sapiens (Human)).
7.00 to 8.00

---

molecular target: Human Tyk2 kinase domain (Homo sapiens (Human), UniProt P29597); test: Tyk2 Inhibition Assay (Omnia kinase fluorescence peptide substrate assay); assay type: biochemical
Sequence (P29597 886-1187): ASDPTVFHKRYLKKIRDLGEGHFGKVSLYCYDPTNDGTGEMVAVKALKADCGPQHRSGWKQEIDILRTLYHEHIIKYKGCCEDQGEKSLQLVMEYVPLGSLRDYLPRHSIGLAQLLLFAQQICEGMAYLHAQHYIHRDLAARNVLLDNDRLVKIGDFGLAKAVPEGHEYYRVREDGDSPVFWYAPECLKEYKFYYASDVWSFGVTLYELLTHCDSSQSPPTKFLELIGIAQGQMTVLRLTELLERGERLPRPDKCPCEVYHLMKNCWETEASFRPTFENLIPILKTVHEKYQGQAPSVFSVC
parameter.measured: IC50

For the compound CCC(CC)n1cc(-c2nc(-c3cnn([C@@H]4CCC[C@@H]4O)c3)cn3nccc23)cn1 [Example 189] , report IC50.
0.01 to 0.1 µM

---

target: JAK3 (Homo sapiens (Human))
Sequence (P52333 whole entry): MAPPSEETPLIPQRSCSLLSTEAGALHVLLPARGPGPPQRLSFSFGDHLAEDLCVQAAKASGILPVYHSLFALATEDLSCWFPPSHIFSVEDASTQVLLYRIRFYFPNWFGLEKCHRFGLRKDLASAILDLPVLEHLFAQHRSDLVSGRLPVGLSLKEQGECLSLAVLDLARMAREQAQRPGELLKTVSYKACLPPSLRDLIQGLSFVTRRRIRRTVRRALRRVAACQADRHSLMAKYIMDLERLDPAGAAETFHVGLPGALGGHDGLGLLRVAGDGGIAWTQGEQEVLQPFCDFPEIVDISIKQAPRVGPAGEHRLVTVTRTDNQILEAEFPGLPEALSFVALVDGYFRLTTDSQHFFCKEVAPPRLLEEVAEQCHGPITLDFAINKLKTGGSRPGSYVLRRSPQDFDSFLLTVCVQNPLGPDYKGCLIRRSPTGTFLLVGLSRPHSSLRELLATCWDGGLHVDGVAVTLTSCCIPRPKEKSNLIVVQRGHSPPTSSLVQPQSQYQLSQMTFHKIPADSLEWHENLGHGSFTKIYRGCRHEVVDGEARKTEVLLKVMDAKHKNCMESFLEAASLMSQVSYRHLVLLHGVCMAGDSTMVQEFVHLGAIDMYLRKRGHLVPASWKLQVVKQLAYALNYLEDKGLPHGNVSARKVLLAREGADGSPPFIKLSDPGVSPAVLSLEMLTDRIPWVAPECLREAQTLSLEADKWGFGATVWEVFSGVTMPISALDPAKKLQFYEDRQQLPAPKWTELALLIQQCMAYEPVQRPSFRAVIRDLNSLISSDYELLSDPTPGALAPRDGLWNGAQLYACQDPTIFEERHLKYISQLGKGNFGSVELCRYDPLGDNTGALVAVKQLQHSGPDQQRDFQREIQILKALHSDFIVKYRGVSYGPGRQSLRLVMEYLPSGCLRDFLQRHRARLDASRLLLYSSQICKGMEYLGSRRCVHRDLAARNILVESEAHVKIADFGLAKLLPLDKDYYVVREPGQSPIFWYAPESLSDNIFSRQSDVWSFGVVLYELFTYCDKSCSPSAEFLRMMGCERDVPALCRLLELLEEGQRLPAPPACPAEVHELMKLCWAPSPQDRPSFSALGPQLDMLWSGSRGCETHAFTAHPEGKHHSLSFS
pIC50: −log10 of the molar value.
parameter.measured: pIC50

Lab note: record pIC50 of CCC(CC)n1cc(-c2nc(-c3cnn([C@H]4CC[C@H](O)CC4)c3)cn3nccc23)cn1 tested on JAK3 (Homo sapiens (Human)).
5.00 to 6.00

Hello, the source for this data is patent US10730880B2, in case you need it.
